Give EC50 for every item shown.
- Experimental System: hTLR7 (Homo sapiens, UniProt Q9NYK1)
- Sequence (Q9NYK1 27-1049): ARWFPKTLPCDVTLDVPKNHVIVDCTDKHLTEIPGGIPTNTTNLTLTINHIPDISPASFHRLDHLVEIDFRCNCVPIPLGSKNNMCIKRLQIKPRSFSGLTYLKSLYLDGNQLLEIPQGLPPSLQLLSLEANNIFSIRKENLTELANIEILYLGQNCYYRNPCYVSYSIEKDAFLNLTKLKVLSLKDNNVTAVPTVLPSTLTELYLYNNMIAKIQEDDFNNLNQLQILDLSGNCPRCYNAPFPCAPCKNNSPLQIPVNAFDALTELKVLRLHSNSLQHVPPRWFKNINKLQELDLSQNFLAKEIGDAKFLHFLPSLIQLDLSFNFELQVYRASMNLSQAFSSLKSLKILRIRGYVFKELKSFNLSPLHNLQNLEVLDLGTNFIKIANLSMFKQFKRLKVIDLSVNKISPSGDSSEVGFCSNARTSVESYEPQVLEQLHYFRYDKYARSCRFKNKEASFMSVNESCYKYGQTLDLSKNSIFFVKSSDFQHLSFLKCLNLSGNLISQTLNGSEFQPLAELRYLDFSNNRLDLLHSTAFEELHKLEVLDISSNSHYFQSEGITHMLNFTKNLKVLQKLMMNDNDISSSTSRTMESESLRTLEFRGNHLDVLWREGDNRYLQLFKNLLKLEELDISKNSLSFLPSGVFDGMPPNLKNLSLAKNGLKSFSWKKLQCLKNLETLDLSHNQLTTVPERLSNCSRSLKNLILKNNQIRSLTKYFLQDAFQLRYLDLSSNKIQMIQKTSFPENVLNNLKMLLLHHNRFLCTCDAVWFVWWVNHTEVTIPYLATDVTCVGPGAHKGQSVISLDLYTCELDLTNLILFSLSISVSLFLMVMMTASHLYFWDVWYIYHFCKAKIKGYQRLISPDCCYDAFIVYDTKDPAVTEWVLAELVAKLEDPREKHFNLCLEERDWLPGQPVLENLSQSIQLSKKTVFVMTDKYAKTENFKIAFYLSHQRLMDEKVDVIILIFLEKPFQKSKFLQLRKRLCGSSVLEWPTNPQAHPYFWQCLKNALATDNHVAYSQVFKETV
- Test Name: Reporter Gene Assay (RGA), HEK-Blue hTLR7 reporter cells, SEAP readout
- Condition: overnight incubation, SEAP absorbance 620 nm
One number for each entry, in nM.

For each listed entry, give its EC50.
1. CCOc1nc(N)c2nc(O)n(Cc3ccc(CN4CCC(N)CC4)cc3F)c2n1
2. CCOc1nc(N)c2nc(O)n(Cc3ccc(CNCCN4CCOCC4)cc3OC)c2n1

Output:
6.1
13.3

For each listed entry, give its EC50.
1. CCOc1nc(N)c2nc(O)n(Cc3ccc(CN4CCC(CCN)CC4)cc3OC)c2n1
2. CCOc1nc(N)c2nc(O)n(Cc3ccc(CN[C@H](CO)[C@@H](C)CC)cc3OC)c2n1

Output:
[6.8, 9]
